// provenance: patent US20250177363A1

targetDesc: human TLR9 (Homo sapiens, UniProt Q9NR96)
Sequence (Q9NR96 26-1032): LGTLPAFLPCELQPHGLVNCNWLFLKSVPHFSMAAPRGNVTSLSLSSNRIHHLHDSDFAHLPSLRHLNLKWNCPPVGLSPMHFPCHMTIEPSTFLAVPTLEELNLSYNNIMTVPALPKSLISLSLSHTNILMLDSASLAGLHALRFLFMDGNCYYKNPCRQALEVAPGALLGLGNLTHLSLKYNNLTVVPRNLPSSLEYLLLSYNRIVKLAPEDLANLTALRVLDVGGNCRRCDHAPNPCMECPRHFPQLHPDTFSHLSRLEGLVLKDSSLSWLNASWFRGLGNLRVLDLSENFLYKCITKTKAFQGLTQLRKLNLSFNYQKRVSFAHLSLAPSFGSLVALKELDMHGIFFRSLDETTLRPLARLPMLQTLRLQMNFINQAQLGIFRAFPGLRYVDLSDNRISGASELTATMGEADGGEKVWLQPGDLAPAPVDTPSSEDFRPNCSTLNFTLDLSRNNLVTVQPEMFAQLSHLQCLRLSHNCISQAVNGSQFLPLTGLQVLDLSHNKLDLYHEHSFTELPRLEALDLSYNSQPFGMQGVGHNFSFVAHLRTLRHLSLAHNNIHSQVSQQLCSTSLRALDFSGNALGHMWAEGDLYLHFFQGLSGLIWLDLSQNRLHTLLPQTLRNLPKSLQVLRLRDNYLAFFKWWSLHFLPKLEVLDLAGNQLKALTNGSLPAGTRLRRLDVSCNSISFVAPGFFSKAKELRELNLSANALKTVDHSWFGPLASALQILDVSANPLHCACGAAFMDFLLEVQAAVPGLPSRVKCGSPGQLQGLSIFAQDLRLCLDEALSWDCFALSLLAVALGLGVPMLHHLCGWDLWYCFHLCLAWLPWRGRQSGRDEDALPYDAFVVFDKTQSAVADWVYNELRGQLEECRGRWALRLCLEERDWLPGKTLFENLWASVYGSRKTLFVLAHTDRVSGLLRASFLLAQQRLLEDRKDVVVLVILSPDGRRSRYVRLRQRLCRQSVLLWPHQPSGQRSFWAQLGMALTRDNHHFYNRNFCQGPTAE
assayName: TLR9 inhibition reporter assay (HEK-Blue, SEAP)
cond: HEK-Blue cells overexpressing human TLR9, ligand ODN2006 200 nM, 22 hour incubation
measuredParameter: IC50 (µM)
Output spec: scalar in µM, unitless text.

What reported IC50 corresponds to Cc1cc(-c2ccc(CN3CCC(N4CCOCC4)CC3)cc2)nc2c1nc(-c1ccc(S(C)(=O)=O)cc1)n2C1CC1 [Example 47] on human TLR9 (Homo sapiens, UniProt Q9NR96)? 0.29

# iterate: COc1ccc(-c2nc3c(C)cc(C4CCN([C@H]5C[C@@H]6CN(C7CCC7)C[C@@H]6C5)CC4)nc3n2C)cc1OC [Example 39] 0.13

# iterate: CC(C)CN1CC2(CCN(c3ccc(-c4ccc5nc(-c6ccc(S(C)(=O)=O)cc6)n(C)c5n4)cc3)CC2)C1 [Example 62] 0.59

# iterate: CC(C)N1CC2(CN(c3ccc(-c4ccc5nc(-c6ccc(S(C)(=O)=O)cc6)n(C)c5n4)cc3)C2)C1 [Example 65] 0.74

# iterate: Cc1cc(-c2ccc(C3CCN(C)CC3)cc2)nc2c1nc(-c1ccc(S(C)(=O)=O)cc1)n2C1CC1 [Example 9] 1.7

# iterate: COc1ccc(-c2nc3ncc(-c4ccc(N5CCN(C(C)C)CC5)cc4)cc3n2C2CC2)cc1OC [Example 50] 0.32

# iterate: Cc1cc(C2CCN(C3CC4CCC(C3)N4C3CCOCC3)CC2)nc2c1nc(-c1ccc(S(C)(=O)=O)cc1)n2C (single isomer, unassigned) [Example 34] 0.037

# iterate: COCCN1C[C@H]2C[C@H](N3CCC(c4cc(C)c5nc(-c6cc(OC)c7ncnn7c6)n(C)c5n4)CC3)C[C@H]2C1 [Example 46] 0.027

# iterate: Cc1cc(C2CCN(C3CC4CCC(C3)N4CC(C)C)CC2)nc2c1nc(-c1ccc(S(C)(=O)=O)cc1)n2C (single isomer, unassigned) [Example 28] 0.079

# iterate: CS(=O)(=O)c1ccc(-c2nc3ccc(-c4ccc(N5CCN(CCN6CCOCC6)CC5)cc4)nc3n2C2CC2)cc1 [Example 57] 3.2

# iterate: COc1ccc(-c2nc3ncc(C4CCN(C5CCN(C6CC6)CC5)CC4)cc3[nH]2)cc1OC [Example 13] 1.2

# iterate: Cc1cc(C2CCN(C3CC4CCC(C3)N4CC(C)C)CC2)nc2c1nc(-c1ccc(S(C)(=O)=O)cc1)n2C (single isomer, unassigned) [Example 29] 0.55

# iterate: Cn1c(-c2ccc(S(C)(=O)=O)cc2)nc2ccc(-c3ccc(N4CCC5(CC4)CN(CC(C)(C)O)C5)cc3)nc21 [Example 63] 0.55

# iterate: Cc1cc(C2CCN(C3CCN(CC4CC4)CC3)CC2)nc2c1nc(-c1ccc(S(C)(=O)=O)cc1)n2C [Example 23] 0.061

# iterate: COc1ccc(-c2nc3ccc(-c4ccc(N5CCN(C(C)C)CC5)cc4)nc3n2C)cc1OC [Example 52] 0.64

# iterate: COc1ccc(-c2nc3c(C)cc(C4CCN([C@H]5C[C@@H]6CN(CC(C)C)C[C@@H]6C5)CC4)nc3n2C)cc1OC [Example 37] 0.1

# iterate: Cc1cc(-c2ccc(CN3CC4(C3)CN(C3CCOCC3)C4)cc2)nc2c1nc(-c1ccc(S(C)(=O)=O)cc1)n2C1CC1 [Example 5] 0.32

# iterate: Cn1c(-c2ccc(S(C)(=O)=O)cc2)nc2ncc(C3CCN(C4CCN(C5CC5)CC4)CC3)cc21 [Example 16] 1.4

# iterate: COc1ccc(-c2nc3c(C)cc(-c4ccc(N5CCC6(CC5)CN(CC(C)C)C6)cc4)nc3n2C)cc1OC [Example 60] 1.1

# iterate: Cc1cc(-c2ccc(CN3CC4(C3)CN(CC(C)C)C4)cc2)nc2c1nc(-c1ccc(S(C)(=O)=O)cc1)n2C1CC1 [Example 4] 0.071

# iterate: COc1cc(-c2nc3c(C)cc(C4CCN([C@H]5C[C@@H]6CN(CC7CC7)C[C@@H]6C5)CC4)nc3n2C)cn2ncnc12 [Example 43] 0.052

# iterate: COc1ccc(-c2nc3c(C)cc(-c4ccc(N5CC6(CN(CC(C)C)C6)C5)cc4)nc3n2C)cc1OC [Example 64] 1.4

# iterate: CC(C)N1CCC(N2CCC(c3cnc4nc(-c5ccc(S(C)(=O)=O)cc5)n(C)c4c3)CC2)CC1 [Example 14] 3.1

# iterate: COc1cc(-c2nc3c(C)cc(C4CCN([C@H]5C[C@@H]6CN(C7CCOCC7)C[C@@H]6C5)CC4)nc3n2C)cn2ncnc12 [Example 44] 0.18

# iterate: CC(C)N1CCN(c2ccc(-c3ccc4nc(-c5ccc(S(C)(=O)=O)cc5)n(C5CC5)c4n3)cc2)CC1 [Example 54] 0.76

# iterate: COc1ccc(-c2nc3c(C)cc(-c4ccc(N5CCC6(CC5)CN(C(C)C)C6)cc4)nc3n2C)cc1OC [Example 58] 0.54

# iterate: Cc1cc(C2CCN(C3CCN(C4CCOCC4)CC3)CC2)nc2c1nc(-c1ccc(S(C)(=O)=O)cc1)n2C [Example 25] 0.042
